Each entry below carries its reported inhibition.
- targetOrTestSystem: Sodium channel protein type 10 subunit alpha (Homo sapiens)
- testDetails: Inhibition of human Nav1.8 expressed in HEK293 cells assessed as change in membrane potential using MP-red voltage sensitive dye at 10 uM
- Format: cell-based
Please reply with the bare figure in % and do not write the unit itself.

NCc1noc(-c2c3ccccc3nn2Cc2ccccc2)n1 84

Q: Endpoint output: inhibition of "CN1CCN(c2ncc(-c3cc(Cl)cc(Cl)c3Cl)c(N)n2)CC1" . Value?
A: 76

Q: Return reported inhibition; argument: "Nc1nnc(-c2cccc(Cl)c2Cl)c(N)n1"
A: 46

Q: Entry "NCc1noc(-c2nn(Cc3ccccc3)c3ccccc23)n1" has what inhibition?
A: 90

Q: Which inhibition is listed for "Nc1nc(N)c(-c2cc(Cl)cc(Cl)c2Cl)c(CF)n1" ?
A: 86

----------
- targetOrTestSystem: Cytochrome P450 1A2 (Homo sapiens, UniProt P05177)
- Sequence (P05177 whole entry): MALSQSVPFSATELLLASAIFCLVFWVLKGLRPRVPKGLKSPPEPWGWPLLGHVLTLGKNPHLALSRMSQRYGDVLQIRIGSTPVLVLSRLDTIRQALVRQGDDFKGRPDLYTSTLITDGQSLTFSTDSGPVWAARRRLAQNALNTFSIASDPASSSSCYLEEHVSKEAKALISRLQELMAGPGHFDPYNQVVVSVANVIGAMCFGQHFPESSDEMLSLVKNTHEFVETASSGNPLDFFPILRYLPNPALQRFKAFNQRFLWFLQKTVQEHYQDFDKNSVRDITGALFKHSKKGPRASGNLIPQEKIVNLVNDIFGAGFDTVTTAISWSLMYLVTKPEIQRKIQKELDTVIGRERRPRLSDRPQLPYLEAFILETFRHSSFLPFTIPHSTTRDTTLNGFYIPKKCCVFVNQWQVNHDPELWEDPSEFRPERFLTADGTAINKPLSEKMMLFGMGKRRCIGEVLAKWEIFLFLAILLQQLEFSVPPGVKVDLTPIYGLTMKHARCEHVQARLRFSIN
- testDetails: Inhibition of human recombinant CYP1A2
A collection of molecules and their measured IC50
// return numeric value only (unit: nM, not printed)

// solved cases for IC50 follow
CC(C)(C)OC(=O)NCc1noc(-c2n[nH]c3ccccc23)n1 790
NCc1noc(-c2c3ccccc3nn2CCc2ccccc2)n1 360
NCc1noc(-c2n[nH]c3ccccc23)n1 210
NCc1noc(-c2nn(CCc3ccccc3)c3ccccc23)n1 34
Cc1cc(C)cc(Cn2nc(-c3nc(CN)no3)c3ccccc32)c1 62

Q: Entry "NCc1noc(-c2nn(Cc3ccccc3)c3ccccc23)n1" , system Cytochrome P450 1A2 (Homo sapiens, UniProt P05177): what IC50 was measured?
A: 9

Q: Form field: IC50 recorded for "CC(=O)Nc1ccc(Cn2nc(-c3nc(CNC(=O)OC(C)(C)C)no3)c3ccccc32)cc1" with Cytochrome P450 1A2 (Homo sapiens, UniProt P05177) (enter value)
A: 5920

Q: Give recorded IC50 with Cytochrome P450 1A2 (Homo sapiens, UniProt P05177) for the following molecule: "Cc1cccc(Cn2nc(-c3nc(CN)no3)c3ccccc32)c1"
A: 84

Q: Item: "NCc1noc(-c2c3ccccc3nn2Cc2ccccc2)n1" Test system: Cytochrome P450 1A2 (Homo sapiens, UniProt P05177) Read-out: IC50 Value: ?
A: 315

Q: Which IC50 is reported with Cytochrome P450 1A2 (Homo sapiens, UniProt P05177) for this entry: "CC(C)(C)OC(=O)NCc1noc(-c2nn(Cc3ccc4c(c3)OCO4)c3ccccc23)n1" ?
A: 4860

----------
- targetOrTestSystem: Sodium channel protein type 9 subunit alpha (Homo sapiens) (UniProt Q15858)
- Sequence (Q15858 whole entry, looked up): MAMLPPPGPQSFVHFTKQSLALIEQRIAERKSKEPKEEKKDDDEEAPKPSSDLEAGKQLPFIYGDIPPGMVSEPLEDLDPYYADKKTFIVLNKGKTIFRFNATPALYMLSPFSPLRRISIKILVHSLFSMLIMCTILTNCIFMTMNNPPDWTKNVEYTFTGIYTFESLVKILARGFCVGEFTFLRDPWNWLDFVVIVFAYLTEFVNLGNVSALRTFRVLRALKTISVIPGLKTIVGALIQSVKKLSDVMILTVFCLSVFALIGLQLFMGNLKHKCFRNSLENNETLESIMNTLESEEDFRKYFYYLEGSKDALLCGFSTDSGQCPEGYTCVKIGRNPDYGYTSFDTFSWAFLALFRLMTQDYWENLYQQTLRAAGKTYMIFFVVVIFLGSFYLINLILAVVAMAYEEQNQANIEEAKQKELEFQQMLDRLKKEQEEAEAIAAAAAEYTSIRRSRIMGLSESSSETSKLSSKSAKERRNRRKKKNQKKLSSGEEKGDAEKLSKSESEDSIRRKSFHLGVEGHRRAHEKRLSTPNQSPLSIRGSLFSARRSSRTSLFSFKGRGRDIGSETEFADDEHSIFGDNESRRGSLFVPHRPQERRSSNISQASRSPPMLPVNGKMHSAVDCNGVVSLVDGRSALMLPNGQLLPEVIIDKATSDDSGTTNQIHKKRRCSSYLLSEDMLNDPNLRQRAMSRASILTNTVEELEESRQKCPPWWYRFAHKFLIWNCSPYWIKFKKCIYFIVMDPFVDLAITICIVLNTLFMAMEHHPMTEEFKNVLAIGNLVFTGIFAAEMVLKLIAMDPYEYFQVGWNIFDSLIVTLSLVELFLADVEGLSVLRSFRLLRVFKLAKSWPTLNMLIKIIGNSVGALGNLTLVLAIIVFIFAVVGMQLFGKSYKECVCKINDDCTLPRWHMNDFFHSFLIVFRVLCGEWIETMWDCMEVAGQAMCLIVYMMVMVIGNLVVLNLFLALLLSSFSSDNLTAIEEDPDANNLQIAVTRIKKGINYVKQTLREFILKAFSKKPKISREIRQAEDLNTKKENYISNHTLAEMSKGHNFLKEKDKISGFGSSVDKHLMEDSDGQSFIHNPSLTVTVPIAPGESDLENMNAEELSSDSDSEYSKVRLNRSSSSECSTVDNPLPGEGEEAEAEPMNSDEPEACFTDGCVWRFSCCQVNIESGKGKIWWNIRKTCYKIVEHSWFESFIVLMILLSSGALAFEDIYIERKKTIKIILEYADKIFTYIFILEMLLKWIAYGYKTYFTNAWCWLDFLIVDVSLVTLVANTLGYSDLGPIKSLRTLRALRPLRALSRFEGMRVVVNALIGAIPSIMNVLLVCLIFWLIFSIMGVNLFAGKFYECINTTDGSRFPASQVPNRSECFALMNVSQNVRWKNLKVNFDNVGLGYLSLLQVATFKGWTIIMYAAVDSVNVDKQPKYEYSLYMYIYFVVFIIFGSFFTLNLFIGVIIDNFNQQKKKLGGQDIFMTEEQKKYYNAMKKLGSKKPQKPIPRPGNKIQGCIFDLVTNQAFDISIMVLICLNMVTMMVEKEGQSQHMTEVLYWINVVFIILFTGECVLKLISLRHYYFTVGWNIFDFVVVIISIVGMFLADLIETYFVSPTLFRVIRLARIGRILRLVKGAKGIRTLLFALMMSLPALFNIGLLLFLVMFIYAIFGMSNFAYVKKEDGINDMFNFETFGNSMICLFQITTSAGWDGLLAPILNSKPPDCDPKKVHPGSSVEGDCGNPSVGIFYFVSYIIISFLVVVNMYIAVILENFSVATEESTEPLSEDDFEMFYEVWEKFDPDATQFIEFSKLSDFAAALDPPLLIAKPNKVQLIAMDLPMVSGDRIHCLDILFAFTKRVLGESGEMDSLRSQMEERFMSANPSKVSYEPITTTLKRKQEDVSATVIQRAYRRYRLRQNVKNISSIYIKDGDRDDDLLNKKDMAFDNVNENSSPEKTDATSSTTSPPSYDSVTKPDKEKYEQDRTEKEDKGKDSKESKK
- testDetails: Inhibition of human Nav1.7 expressed in HEK293 cells assessed as change in membrane potential using MP-red voltage sensitive dye at 10 uM
- Type: cell-based
The reader will find reported inhibition values listed item by item below.
Just the number please, in %, no unit attached.

Examples with answers:
NCc1noc(-c2nn(Cc3ccccc3)c3ccccc23)n1 59
Nc1nnc(-c2cccc(Cl)c2Cl)c(N)n1 45
Nc1nc(N)c(-c2cc(Cl)cc(Cl)c2Cl)c(CF)n1 44
CN1CCN(c2ncc(-c3cc(Cl)cc(Cl)c3Cl)c(N)n2)CC1 67

Please examine the following record next.
Q: Look at this compound and give its reported inhibition. "NCc1noc(-c2c3ccccc3nn2Cc2ccccc2)n1"
A: 92

----------
- targetOrTestSystem: Sodium channel protein type 8 subunit alpha (Homo sapiens)
- Sequence (Q9UQD0 whole entry, looked up): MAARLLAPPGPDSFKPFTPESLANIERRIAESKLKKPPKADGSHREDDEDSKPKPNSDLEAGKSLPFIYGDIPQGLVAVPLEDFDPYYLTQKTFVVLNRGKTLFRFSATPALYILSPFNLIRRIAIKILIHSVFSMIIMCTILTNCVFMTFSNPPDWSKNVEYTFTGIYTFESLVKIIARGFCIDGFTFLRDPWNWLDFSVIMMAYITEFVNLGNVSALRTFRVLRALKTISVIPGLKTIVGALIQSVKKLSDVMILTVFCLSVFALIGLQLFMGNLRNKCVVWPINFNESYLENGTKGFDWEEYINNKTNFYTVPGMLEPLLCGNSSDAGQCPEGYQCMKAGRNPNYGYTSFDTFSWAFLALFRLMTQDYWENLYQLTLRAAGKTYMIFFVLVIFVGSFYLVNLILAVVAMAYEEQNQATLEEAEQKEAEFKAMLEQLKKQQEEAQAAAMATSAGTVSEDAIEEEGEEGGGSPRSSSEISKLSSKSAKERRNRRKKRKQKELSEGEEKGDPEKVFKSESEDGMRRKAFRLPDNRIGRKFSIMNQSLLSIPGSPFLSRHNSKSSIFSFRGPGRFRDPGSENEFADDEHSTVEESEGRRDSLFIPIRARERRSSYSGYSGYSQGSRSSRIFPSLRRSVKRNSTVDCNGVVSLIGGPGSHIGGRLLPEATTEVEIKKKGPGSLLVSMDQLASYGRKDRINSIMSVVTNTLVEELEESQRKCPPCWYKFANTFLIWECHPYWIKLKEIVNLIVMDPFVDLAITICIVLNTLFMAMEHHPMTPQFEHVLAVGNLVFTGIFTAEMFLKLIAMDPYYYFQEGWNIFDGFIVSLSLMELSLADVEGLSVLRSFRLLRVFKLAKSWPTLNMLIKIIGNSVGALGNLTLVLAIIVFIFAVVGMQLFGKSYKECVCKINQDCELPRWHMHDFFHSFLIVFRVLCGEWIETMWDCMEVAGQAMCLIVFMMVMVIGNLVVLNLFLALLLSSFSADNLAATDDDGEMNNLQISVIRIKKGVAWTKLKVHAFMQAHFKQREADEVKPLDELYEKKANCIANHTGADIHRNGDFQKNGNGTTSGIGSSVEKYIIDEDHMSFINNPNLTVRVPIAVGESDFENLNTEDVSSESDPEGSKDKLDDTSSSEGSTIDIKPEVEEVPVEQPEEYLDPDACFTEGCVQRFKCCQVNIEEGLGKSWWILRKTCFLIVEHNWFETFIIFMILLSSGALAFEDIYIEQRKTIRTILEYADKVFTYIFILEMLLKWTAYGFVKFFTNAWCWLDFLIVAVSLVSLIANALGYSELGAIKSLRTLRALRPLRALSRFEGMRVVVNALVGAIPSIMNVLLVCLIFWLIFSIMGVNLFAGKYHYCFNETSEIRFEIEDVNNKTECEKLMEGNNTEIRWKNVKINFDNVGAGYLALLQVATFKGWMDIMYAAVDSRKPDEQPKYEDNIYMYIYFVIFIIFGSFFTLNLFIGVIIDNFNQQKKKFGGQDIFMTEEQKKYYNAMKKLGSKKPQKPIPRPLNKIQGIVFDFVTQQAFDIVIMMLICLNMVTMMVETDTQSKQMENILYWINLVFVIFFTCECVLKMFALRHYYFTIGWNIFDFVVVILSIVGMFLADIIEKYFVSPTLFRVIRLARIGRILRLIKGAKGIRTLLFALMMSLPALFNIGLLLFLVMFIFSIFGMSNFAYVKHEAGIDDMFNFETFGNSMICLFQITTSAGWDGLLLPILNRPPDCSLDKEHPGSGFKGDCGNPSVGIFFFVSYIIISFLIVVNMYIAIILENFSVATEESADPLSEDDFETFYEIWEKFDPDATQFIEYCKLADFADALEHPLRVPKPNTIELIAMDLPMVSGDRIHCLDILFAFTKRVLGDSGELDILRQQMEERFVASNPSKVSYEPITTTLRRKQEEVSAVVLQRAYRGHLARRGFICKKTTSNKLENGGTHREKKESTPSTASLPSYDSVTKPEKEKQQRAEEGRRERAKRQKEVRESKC
- testDetails: Use-dependent inhibition of human Nav1.6 expressed in HEK293 cells at 10 uM using double-pulse protocol by patch clamp technique
- Type: cell-based
measurementKind: inhibition (%)
Just the number in %, nothing appended.

CN1CCN(c2ncc(-c3cc(Cl)cc(Cl)c3Cl)c(N)n2)CC1 37
NCc1noc(-c2nn(Cc3ccccc3)c3ccccc23)n1 1.1
NCc1noc(-c2c3ccccc3nn2Cc2ccccc2)n1 29

Q: I'd like to know its inhibition. The compound in question is "Nc1nc(N)c(-c2cc(Cl)cc(Cl)c2Cl)c(CF)n1"
A: 81.4

----------
List of inhibition values.
- targetOrTestSystem: Sodium channel protein type 1 subunit alpha (Homo sapiens)
- testDetails: Inhibition of human Nav1.1 expressed in HEK293 cells assessed as change in membrane potential using MP-red voltage sensitive dye at 10 uM
- Type: cell-based
Express your answer in %, writing the number without its unit.

// known answers, use as guide
NCc1noc(-c2c3ccccc3nn2Cc2ccccc2)n1 51
CN1CCN(c2ncc(-c3cc(Cl)cc(Cl)c3Cl)c(N)n2)CC1 55
NCc1noc(-c2nn(Cc3ccccc3)c3ccccc23)n1 48

Q: Field request: inhibition | item: "Nc1nnc(-c2cccc(Cl)c2Cl)c(N)n1"
A: 44

Q: Data request, read-out inhibition, for "Nc1nc(N)c(-c2cc(Cl)cc(Cl)c2Cl)c(CF)n1"
A: 56

----------
inhibition by entry:
- targetOrTestSystem: Sodium channel protein type 2 subunit alpha (Homo sapiens)
- testDetails: Use-dependent inhibition of human Nav1.2 expressed in HEK293 cells at 50 uM using double-pulse protocol by patch clamp technique
- Format: cell-based
Just the number in %, nothing appended.

Example results:
molecule	targetOrTestSystem	inhibition (%)
Nc1nc(N)c(-c2cc(Cl)cc(Cl)c2Cl)c(CF)n1	Sodium channel protein type 2 subunit alpha (Homo sapiens)	88.5
NCc1noc(-c2nn(Cc3ccccc3)c3ccccc23)n1	Sodium channel protein type 2 subunit alpha (Homo sapiens)	14.7
CN1CCN(c2ncc(-c3cc(Cl)cc(Cl)c3Cl)c(N)n2)CC1 [SIPATRIGINE]	Sodium channel protein type 2 subunit alpha (Homo sapiens)	84.6

Next up:
Q: Entry "NCc1noc(-c2c3ccccc3nn2Cc2ccccc2)n1" has what inhibition?
A: 70.8

----------
In this section we review reported inhibition values for a set of molecules.
- targetOrTestSystem: Sodium channel protein type 3 subunit alpha (Homo sapiens) (UniProt Q9NY46)
- testDetails: Inhibition of human Nav1.3 expressed in HEK293 cells assessed as change in membrane potential using MP-red voltage sensitive dye at 10 uM
- Assay type: cell-based
Just the number please, in %, no unit attached.

Nc1nnc(-c2cccc(Cl)c2Cl)c(N)n1 22
NCc1noc(-c2c3ccccc3nn2Cc2ccccc2)n1 78

Q: # query: inhibition | item "Nc1nc(N)c(-c2cc(Cl)cc(Cl)c2Cl)c(CF)n1" | system: Sodium channel protein type 3 subunit alpha (Homo sapiens) (UniProt Q9NY46)
A: 100

Q: # query: inhibition | item "NCc1noc(-c2nn(Cc3ccccc3)c3ccccc23)n1" | system: Sodium channel protein type 3 subunit alpha (Homo sapiens) (UniProt Q9NY46)
A: 79

Q: Hi! What's the reported inhibition for "CN1CCN(c2ncc(-c3cc(Cl)cc(Cl)c3Cl)c(N)n2)CC1" on Sodium channel protein type 3 subunit alpha (Homo sapiens) (UniProt Q9NY46)?
A: 61

----------
- targetOrTestSystem: Cytochrome P450 2D6 (Homo sapiens, UniProt P10635)
- Sequence (P10635 whole entry): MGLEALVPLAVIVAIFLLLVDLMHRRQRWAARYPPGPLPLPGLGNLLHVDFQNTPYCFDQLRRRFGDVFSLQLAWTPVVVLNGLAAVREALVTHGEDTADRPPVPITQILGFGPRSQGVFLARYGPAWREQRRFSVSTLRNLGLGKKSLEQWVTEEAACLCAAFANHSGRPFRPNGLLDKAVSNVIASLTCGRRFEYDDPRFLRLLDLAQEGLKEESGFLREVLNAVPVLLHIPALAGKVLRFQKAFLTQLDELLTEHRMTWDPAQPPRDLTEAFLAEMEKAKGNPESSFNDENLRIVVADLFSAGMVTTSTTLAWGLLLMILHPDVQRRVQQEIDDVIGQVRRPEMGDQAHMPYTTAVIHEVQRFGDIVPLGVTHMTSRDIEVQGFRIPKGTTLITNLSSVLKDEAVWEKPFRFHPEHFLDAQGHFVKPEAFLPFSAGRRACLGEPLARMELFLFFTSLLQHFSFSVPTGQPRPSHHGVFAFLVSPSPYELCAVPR
- testDetails: Inhibition of human recombinant CYP2D6
pIC50: −log10 of the molar value.
# maps each entry to its pIC50

CC(=O)n1nc(-c2nc(CN)no2)c2ccccc21 < 5.00

Q: Name the reported pIC50 value associated with the compound "CC(C)(C)OC(=O)NCc1noc(-c2n[nH]c3ccccc23)n1"
A: < 5.00

Q: Find the recorded pIC50 belonging to "CC(C)(C)OC(=O)NCc1noc(-c2nn(Cc3ccc(C(N)=O)cc3)c3ccccc23)n1" and report it.
A: < 5.00

----------
- targetOrTestSystem: Cytochrome P450 2D6 (Homo sapiens, UniProt P10635)
- testDetails: Inhibition of human recombinant CYP2D6
pIC50: −log10 of the molar value.
measurementKind: pIC50

NCc1noc(-c2c3ccccc3nn2Cc2ccccc2)n1 < 5.00
CC(=O)n1nc(-c2nc(CNC(=O)OC(C)(C)C)no2)c2ccccc21 < 5.00

Now let's try a different one.
Q: Given the entry "CC(C)(C)OC(=O)NCc1noc(-c2nn(Cc3ccc(-c4cn[nH]c4)cc3)c3ccccc23)n1" , report its measured pIC50.
A: < 5.00

This collection of values is drawn from ChEMBL document CHEMBL1138611.
